Property: IC50 at 24 h; scope: individual molecules
Test: MTT viability assay, L929 normal fibroblast cell line
Assay type: cell-based
Details: L929 normal fibroblast cells (NCTC clone 929), L929 (normal) mouse fibroblast, 24 h incubation, mean ± SD (n = 3), read-out: Cytotoxic activity IC50
State just the number; it will be interpreted in µM.

Some entries whose results are on file:
{"MOLECULE": "CCC(=O)O[C@@H]1[C@@H]2[C@@H](OC(=O)C(C)C)[C@@]3(COC(=O)c4cccnc4)[C@@H]([C@@H]4[C@H](C[C@H]3OC(C)=O)C4(C)C)[C@](C)(OC(C)=O)C(=O)[C@@]2(O)C[C@@H]1C", "IC50 at 24 h [µM]": 716}
{"MOLECULE": "CCC(=O)O[C@@H]1[C@@H]2[C@@H](OC(=O)C(C)CC)[C@@]3(COC(=O)c4cccnc4)[C@@H]([C@@H]4[C@H](C[C@H]3OC(C)=O)C4(C)C)[C@](C)(OC(C)=O)C(=O)[C@@]2(O)C[C@@H]1C (some centres unmarked)", "IC50 at 24 h [µM]": 528}
{"MOLECULE": "CCC(=O)OC1C2C(OC(C)=O)C34COC(C)(C(OC(=O)c5ccccc5)C2(OC(C)=O)CC1(C)OC(C)=O)C3C(C(C)(C)OC(C)=O)C=CC4OC(C)=O (centres unmarked)", "IC50 at 24 h [µM]": 596}

Exam item: Fill blank: measured IC50 at 24 h of the molecule `CCC(=O)O[C@@H]1[C@@H]2[C@@H](OC(=O)C(C)C)[C@@]3(COC(C)=O)[C@@H]([C@@H]4[C@H](C[C@H]3OC(C)=O)C4(C)C)[C@](C)(OC(C)=O)C(=O)[C@@]2(O)C[C@@H]1C` is ____.
Marked response: 433

Exam item: # repeat for `CCC(=O)O[C@@H]1[C@@H]2[C@@H](OC(=O)c3ccccc3)[C@@]3(COC(C)=O)[C@@H]([C@@H]4[C@H](C[C@H]3OC(C)=O)C4(C)C)[C@](C)(OC(C)=O)C(=O)[C@@]2(O)C[C@@H]1C`
Marked response: 553
